// classify: if (melting point < 100 °C) Condition met else Condition not met

O=C(SSC(=O)c1ccccc1)c1ccccc1 ... Condition not met
O=C1CN=C(c2ccccc2F)c2cc(Cl)ccc2N1CC1CC1 ... Condition not met
O=C(NNC(=S)NCc1ccccc1)C(=O)c1c[nH]c2ccccc12 ... Condition not met
CC(=O)OC1CCC2C3CCC4CC5(CCC4(C)C3CCC12C)OCCO5 (centres undefined) ... Condition not met
CCN1C(=O)NC(c2ccccc2)C1=O (centres undefined) ... Condition met
O=c1ccc([N+](=O)[O-])cn1Cc1ccccc1 ... Condition met
O=C(N(c1ccccc1)c1ccccc1)C(F)(F)C(F)(F)C(F)(F)C(F)(F)C(F)(F)C(F)(F)C(F)(F)C(F)(F)F ... Condition met
CC(=O)OC(C)OC(C)=O ... Condition met
NC(=O)C1=CN(C2OC(COP(=O)(O)OP(=O)(O)OCC3OC(n4cnc5c(N)ncnc54)C(O)C3O)C(O)C2O)C=CC1 (centres undefined) ... Condition not met
CCCCCC(=NO)C(C)=O ... Condition met
C=CC/C=C/C ... Condition met
NC(=O)c1ccccc1C(N)=O ... Condition not met
CC(O)CNCCN (centres undefined) ... Condition met
O=C(O)/C=C/c1cc2c(cc1CC(=O)O)NC(=O)CC2 ... Condition not met
CCCCCCCC(=O)OCC(COC(=O)CCCCCCC)OC(=O)CCCCCCC ... Condition met
O=C(O)c1cnc2ccc(OC(F)(F)F)cc2c1O ... Condition not met
